Measured Pre-emergence herbicidal damage score, ZEAMX, listed per entry.
Test system: a variety of test species
assay_info: Pre-emergence herbicidal activity (glasshouse, sprayed one day after sowing, evaluated after 13 days)
Format: in vivo
condition_parameters: ZEAMX, application pre-emergence, rate 1000 g/Ha, scale 0-5
measure: Pre-emergence herbicidal damage score, ZEAMX

>>> df
                                    compound  recorded_measurement
 0  CCCC1=C(Br)C(=O)N(c2noc(C(C)(C)C)c2C#N)C1O (centres unmarked)                     3
 1      CC1=C(Cl)C(=O)N(c2cc(C(C)(C)C)on2)C1                     3
 2  CC1=C(Br)C(=O)N(c2cc(C(F)(F)F)on2)C1O (centres unmarked)                     0
 3      COC1=C(C)CN(c2cc(C(C)(C)C#N)on2)C1=O                     2
 4  CC1=C(Cl)C(=O)N(c2cc(C(C)(C)C)on2)C1O (centres unmarked)                     3
 5  CN(C)C1=C(Cl)C(=O)N(c2cc(C(C)(C)C)on2)C1O (centres unmarked)                     1
 6  CC(=O)OC1C(C)=C(Cl)C(=O)N1c1cc(C(C)(C)C)on1 (centres unmarked)                     3
 7  CC1=C(Br)C(=O)N(c2cc(C)on2)C1O (centres unmarked)                     2
 8  CC(=O)OC1C(N)=C(Cl)C(=O)N1c1cc(C(C)(C)C)on1 (centres unmarked)                     4
 9  C=CC(C)(C)c1onc(N2C(=O)C(Cl)=C(C)C2O)c1C#N (centres unmarked)                     1
10  COC1=C(C)C(O)N(c2noc(C(C)(C)C)c2C#N)C1=O (centres unmarked) [D2]                     3

---

System: a variety of test species
assay_info: Pre-emergence herbicidal activity (glasshouse, sprayed one day after sowing, evaluated after 13 days)
Assay type: in vivo
Set-up: key: 5=total damage to plant; 0=no damage to plant
condition_parameters: AMARE, application pre-emergence, rate 1000 g/Ha, scale 0-5
Parameter Pre-emergence herbicidal damage score, AMARE: see the listing below.
measure: Pre-emergence herbicidal damage score, AMARE

>>> print(df.to_string())
                                    molecule  recorded_measurement
 0  CC1=C(Cl)C(=O)N(c2noc(C(C)(C)C)c2C#N)C1O (stereo not drawn) [A31]                     5
 1  CCOCCNC1=C(Cl)C(=O)N(c2cc(C(C)(C)C)on2)C1O (stereo not drawn) [C12]                     4
 2  CC1=C(Cl)C(=O)N(c2noc(C(C)C)c2C#N)C1 [A103]                     5
 3   COC1=C(C)CN(c2cc(C(C)(C)C)on2)C1=O [D9]                     5
 4  CC1=C(Cl)C(=O)N(c2cc(C(C)(C)C)on2)C1OC(=O)SCC(C)C (stereo not drawn) [A82]                     3
 5  CC1=C(Cl)C(=O)N(c2cc(C(C)(C)C)on2)C1OC(=O)c1ccno1 (stereo not drawn) [A92]                     5
 6  COCC(C)(C)c1cc(N2C(=O)C(C)=C(OC)C2O)no1 (stereo not drawn) [G3]                     5
 7  CC(C)(C)c1cc(N2C(=O)C(Cl)=C(C3CC3)C2O)no1 (stereo not drawn) [A15]                     5
 8  C=CC(C)(C)c1onc(N2C(=O)C(Cl)=C(C)C2O)c1C#N (stereo not drawn) [A66]                     5
 9  C#CCNC1=C(Cl)C(=O)N(c2cc(C(C)(C)C)on2)C1O (stereo not drawn) [C5]                     5
10  CC1=C(Cl)C(=O)N(c2cc(C(C)(C)C)on2)C1OC(=O)C(C)(C)C (stereo not drawn) [A77]                     4
11  CC1=C(Cl)C(=O)N(c2noc(C(C)(C)C)c2Cl)C1O (stereo not drawn) [A24]                     4
12  CC1=C(Br)C(=O)N(c2noc(C(C)C)c2C#N)C1O (stereo not drawn) [A61]                     5
13  CC1=C(Cl)C(=O)N(c2cc(C(C)(C)C)on2)C1OC(=O)Oc1ccccc1 (stereo not drawn) [A84]                     5
14  C=CCNC1=C(Cl)C(=O)N(c2cc(C(C)(C)C)on2)C1O (stereo not drawn) [C7]                     5
15  CC1=C(Cl)C(=O)N(c2noc(C(C)(C)C)c2C#N)C1 [A102]                     5
16  CCC1=C(Cl)C(=O)N(c2cc(C(C)(C)C)on2)C1O (stereo not drawn) [A16]                     5
17  CC(=O)OC1C(C)=C(Cl)C(=O)N1c1noc(C(C)(C)C)c1C#N (stereo not drawn) [A94]                     5
18  CCCC1=C(Br)C(=O)N(c2cc(C(C)(C)C#N)on2)C1O (stereo not drawn) [A52]                     5
19  CCC1=C(Cl)C(=O)N(c2cc(C(C)(C)C#N)on2)C1O (stereo not drawn) [A64]                     5
20  COC1=C(Cl)C(OC(C)=O)N(c2cc(C(C)(C)C)on2)C1=O (stereo not drawn) [E2]                     5
